test system: Klebsiella aerogenes; assay: Antibacterial activity against Enterobacter aerogenes; type: functional
Quantity name: MIC50 (µg/mL)
Answers are plain numbers, in µg/mL.

Return reported MIC50 values for all items listed beneath this line.
1. Cc1c(N2CC[C@@H]([C@H](C)N)C2)c(F)cc2c(=O)[nH]c(=O)n(C3CC3)c12
2. COc1c(N2CCNC(C)C2)c(F)cc2c(=O)c(C(=O)O)cn(C3CC3)c12 (stereo not given)
3. C[C@H]1NCc2cc(-c3ccc4c(=O)c(C(=O)O)cn(C5CC5)c4c3OC(F)F)ccc21
4. Cc1c(N2CC[C@@H]([C@H](C)N)C2)c(F)cc2c(=O)n(N)c(=O)n(C3CC3)c12
5. C[C@H]1COc2c(N3CCN(C)CC3)c(F)cc3c(=O)c(C(=O)O)cn1c23.C[C@H]1COc2c(N3CCN(C)CC3)c(F)cc3c(=O)c(C(=O)O)cn1c23.O

[reply]
8
1
2
4
1
